Tested on: Human LDLs
Assay: Oxidation of human LDL in the presence of cupric ion (fluorescence), antioxidant effect
Type: biochemical
Settings: human LDL 120 μg/ml, 100 μM CuCl2; difference of fluorescence readings at 2 h and 24 h, 37° C; from 3 product concentrations
Mark True for IC50 under 6 µM, False if at or over.

Solved cases below.
- O=NN(c1ccccc1)c1ccc(NC(=O)c2cccnc2)cc1: False
- CC(C)(Sc1cc(C(C)(C)C)c(O)c(C(C)(C)C)c1)Sc1cc(C(C)(C)C)c(O)c(C(C)(C)C)c1 [Probucol, reference compound]: False
- COc1ccc(N(N=O)c2ccc(NS(=O)(=O)c3ccc(OC)cc3)cc2)cc1: True

Q) Lab note: confirm whether the reported IC50 for this compound is below 6 µM, equality not counting. compound: "COc1ccc(N(N=O)c2ccc(NC(=O)c3cccnc3)cc2)cc1"
A) False

Q) Here is the next compound: "O=NN(c1ccccc1)c1ccc(NC(=O)Nc2ccccc2)cc1"
A) True

Q) Moving on to the next compound: "COc1ccc(N(N=O)c2ccc(NC(=O)OCc3ccccc3)cc2)cc1"
A) True

Q) Again, but for "COc1ccc(N(N=O)c2ccc(NC(=O)c3ccc(C#N)cc3)cc2)cc1"
A) True

Q) What do you get for "COc1ccc(N(N=O)c2ccc(NC(=O)c3cccc([N+](=O)[O-])c3)cc2)cc1" ?
A) True

----------
System: Human LDLs
Assay: Oxidation of human LDL in the presence of cupric ion (fluorescence), antioxidant effect
Format: biochemical
Conditions: human LDL 120 μg/ml, 100 μM CuCl2; difference of fluorescence readings at 2 h and 24 h, 37° C; from 3 product concentrations
recorded.metric: pIC50
Note on pIC50: it is the negative log10 of concentration, concentration in mol/L.

Illustrative cases are given below, each with its answer.
- COc1ccc(N(N=O)c2ccc(NC(=O)c3cncnc3)cc2)cc1 [Example 4]: 5.27
- O=NN(c1ccccc1)c1ccc(NS(=O)(=O)c2cccnc2)cc1 [Example 6]: 5.19

Q) I'd like to know its pIC50. The molecule in question is O=NN(c1ccccc1)c1ccc(NS(=O)(=O)c2ccccc2)cc1 [Example 45]
A) 5.49

----------
Test: Spontaneous nitric oxide release: nitrites+nitrates titrated by colorimetry (Griess reagent, nitrate reductase)
Assay type: biochemical
Conditions: test product final concentration 150 μM; 4 hours at 37° C; pH 7.5 PBS buffer; optical density at 540 nm
# Nitrates + nitrites listing for each entry below
Answer in µM, number only, no unit symbol.

* COc1ccc(N(N=O)c2ccc(NC(=O)c3ccc(C#N)cc3)cc2)cc1 | 22

Q) For the compound "O=NN(c1ccccc1)c1ccc(NC(=O)Nc2ccccc2)cc1" , what Nitrates + nitrites is on record?
A) 44

Q) Follow-up entry: "COc1ccc(N(N=O)c2ccc(NC(=O)OCc3ccccc3)cc2)cc1"
A) 45

Q) Proceed to "O=NN(c1ccccc1)c1ccc(NS(=O)(=O)c2ccccc2)cc1"
A) 62

Q) How about this compound: "O=NN(c1ccccc1)c1ccc(NS(=O)(=O)c2cccnc2)cc1"
A) 83

Q) Next record, please: "COc1ccc(N(N=O)c2ccc(NS(=O)(=O)c3ccc(OC)cc3)cc2)cc1"
A) 79

Q) "COc1ccc(N(N=O)c2ccc(NC(=O)c3cccnc3)cc2)cc1" , same question.
A) 97

Q) Now try "COc1ccc(N(N=O)c2ccc(NC(=O)c3cncnc3)cc2)cc1" .
A) 84

Q) Then this compound: "COc1ccc(N(N=O)c2ccc(NC(=O)c3cccc([N+](=O)[O-])c3)cc2)cc1"
A) 71

Q) Next: "O=NN(c1ccccc1)c1ccc(NC(=O)c2cccnc2)cc1"
A) 109
